src = patent US20080248511A1

# target-or-system: firefly luciferase (Photinus pyralis)
# Sequence (P08659 whole entry): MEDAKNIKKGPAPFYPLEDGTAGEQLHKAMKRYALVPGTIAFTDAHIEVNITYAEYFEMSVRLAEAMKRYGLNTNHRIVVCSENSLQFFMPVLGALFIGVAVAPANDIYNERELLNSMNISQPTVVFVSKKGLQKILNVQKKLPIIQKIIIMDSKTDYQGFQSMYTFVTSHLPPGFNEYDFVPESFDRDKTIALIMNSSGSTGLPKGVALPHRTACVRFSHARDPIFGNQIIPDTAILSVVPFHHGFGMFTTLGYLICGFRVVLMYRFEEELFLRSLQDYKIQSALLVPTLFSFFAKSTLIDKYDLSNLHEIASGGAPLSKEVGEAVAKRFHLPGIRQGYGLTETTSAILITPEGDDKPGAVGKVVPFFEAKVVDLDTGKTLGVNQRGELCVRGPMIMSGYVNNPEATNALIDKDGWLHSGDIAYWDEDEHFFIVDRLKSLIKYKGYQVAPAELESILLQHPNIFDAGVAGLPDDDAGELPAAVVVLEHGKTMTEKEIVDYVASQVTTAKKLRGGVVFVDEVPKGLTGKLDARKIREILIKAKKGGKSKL
# assay-method-text: Quaternary ammonium/phosphonium detergent screen, firefly luciferase (Example 5)
# Format: biochemical
# condition-summary: final conc. 0.10% detergent; Tergitol NP-9 present
We use 70% as the dividing line for Retained Firefly Luciferase Luminescence (%): on or above the line is 1, below is 0.

[
  {
    "molecule": "C[N+](C)(Cc1ccccc1)c1ccccc1.[Br-] [Benzyldimethylphenylammonium bromide]",
    "discrete-label": 1
  },
  {
    "molecule": "CC[N+](CC)(CCC(=O)Nc1c(C)cccc1C)Cc1ccccc1.O=C([O-])c1ccccc1",
    "discrete-label": 1
  },
  {
    "molecule": "C[N+](C)(Cc1ccccc1)c1ccccc1.[Cl-] [Benzyldimethylphenylammonium chloride]",
    "discrete-label": 0
  },
  {
    "molecule": "CC1(C)C=Cc2ccccc2[N+]1(C)C.[I-]",
    "discrete-label": 1
  },
  {
    "molecule": "C[N+](C)(C)Cc1ccccc1.[I-] [Bezyltrimethylammonium iodide]",
    "discrete-label": 0
  }
]
